B1: GLuc2-NS2 (hepatitis C virus nonstructural 2 protein, wild type) [hepatitis C virus (J6/JFH genome)] / GLuc1-tagged μ subunit of the AP-4 complex [not stated] (parent complex)
chain 1: YDASVHGQIGAALLVLITLFTLTPGYKTLLSRFLWWLCYLLTLAEAMVQEWAPPMQVRGGRDGIIWAVAIFCPGVVFDITKWLLAVLGPAYLLKGALTRVPYFVRAHALLRMCTMVRHLAGGRYVQMVLLALGRWTGTYIYDHLTPMSDWAANGLRDLAVAVEPIIFSPMEKKVIVWGAETAACGDILHGLPVSARLGREVLLGPADGYTSKGWSLL
chain 2: MISQFFILSSKGDPLIYKDFRGDSGGRDVAELFYRKLTGLPGDESPVVMHHHGRHFIHIRHSGLYLVVTTSENVSPFSLLELLSRLATLLGDYCGSLGEGTISRNVALVYELLDEVLDYGYVQTTSTEMLRNFIQTEAVVSKPFSLFDLSSVGLFGAETQQSKVAPSSAASRPVLSSRSDQSQKNEVFLDVVERLSVLIASNGSLLKVDVQGEIRLKSFLPSGSEMRIGLTEEFCVGKSELRGYGPGIRVDEVSFHSSVNLDEFESHRILRLQPPQGELTVMRYQLSDDLPSPLPFRLFPSVQWDRGSGRLQVYLKLRCDLLSKSQALNVRLHLPLPRGVVSLSQELSSPEQKAELAEGALRWDLPRVQGGSQLSGLFQMDVPGPPGPPSHGLSTSASPLGLGPASLSFELPRHTCSGLQVRFLRLAFRPCGNANPHKWVRHLSHSDAYVIRI

variants of: B1; experiment: PCA (protein-fragment complementation assay); parent: 1; read off a plot
assay-metric: ratio to parent

// recorded ratio to parent for chain 1 L216A : ~0.56

// recorded ratio to parent for chain 1 L203A : ~0.62

// recorded ratio to parent for chain 1 L202A : ~0.57

// recorded ratio to parent for chain 1 E200A : ~1

// recorded ratio to parent for chain 1 D207A : ~0.6

// recorded ratio to parent for chain 1 L217A : ~0.52

Source of measurements: paper PMC5850324
